Listed molecules paired with reported pest or weed control at 320 g/ha
- System: Avena fatua
- procedureText: Post-emergence herbicidal activity against AVEFA
- Assay type: in vivo
- reportedConditions: Avena fatua, 504 h, dosage 320 g/ha, rated about 3 weeks after treatment
measurementType: pest or weed control at 320 g/ha (%)

[[record]]
molecule = "CC(C)OC(=O)[C@H]1C[C@@H](NC(=O)C2(C)CC(c3cccc(F)c3)=NO2)CO1 (mixture of isomers)"
unitname = "%"
quantitativeresult = 100

[[record]]
molecule = "COC(=O)[C@H]1C[C@@H](NC(=O)C2(OC)CC(c3cc(C)cc(Br)c3)=NO2)CO1 (relative stereo)"
unitname = "%"
quantitativeresult = 100

[[record]]
molecule = "C=C[C@]1(C(=O)NC2COCC2C(=O)OC)CC(c2cc(F)cc(F)c2)=NO1 (stereo partly shown)"
unitname = "%"
quantitativeresult = 90

[[record]]
molecule = "CCOC(=O)C1(NC(=O)C2(C)CC(c3cc(F)cc(F)c3)=NO2)CCOC1 (stereo not shown)"
unitname = "%"
quantitativeresult = 100

[[record]]
molecule = "COC(=O)[C@H]1C[C@@H](NC(=O)C2(OC)CC(c3ccccc3)=NO2)CO1 (relative stereo)"
unitname = "%"
quantitativeresult = 100

[[record]]
molecule = "C=CC1(C(=O)N[C@H]2CO[C@@H](C(=O)OC)C2)CC(c2cc(Cl)cc(Cl)c2)=NO1 (relative stereo)"
unitname = "%"
quantitativeresult = 80

[[record]]
molecule = "COC(=O)C1COCC1NC(=O)C1(OC)CC(c2cc(F)cc(F)c2)=NO1 (stereo not shown)"
unitname = "%"
quantitativeresult = 90

[[record]]
molecule = "COC(=O)C1(NC(=O)C2(C)CC(c3cc(F)cc(F)c3)=NO2)CCOC1 (stereo not shown)"
unitname = "%"
quantitativeresult = 80

[[record]]
molecule = "COC(=O)[C@H]1C[C@@H](NC(=O)C2(C)CC(c3cccc(F)c3)=NO2)CO1 (relative stereo)"
unitname = "%"
quantitativeresult = 90

[[record]]
molecule = "C=CC1(C(=O)N[C@H]2CO[C@@H](C(=O)OC)C2)CC(c2cccc(F)c2)=NO1 (relative stereo)"
unitname = "%"
quantitativeresult = 90

[[record]]
molecule = "CC1(C(=O)N[C@H]2CO[C@@H](C(=O)O)C2)CC(c2cccc(F)c2)=NO1 (relative stereo)"
unitname = "%"
quantitativeresult = 90

[[record]]
molecule = "C=C[C@]1(C(=O)N[C@H]2CO[C@@H](C(=O)OC(C)C)C2)CC(c2cc(F)cc(F)c2)=NO1 (mixture of isomers)"
unitname = "%"
quantitativeresult = 90

[[record]]
molecule = "C=CC1(C(=O)NC2=C(C(=O)OCC)COC2)CC(c2cc(F)cc(F)c2)=NO1 (stereo not shown)"
unitname = "%"
quantitativeresult = 100

[[record]]
molecule = "C=C[C@]1(C(=O)N[C@H]2CO[C@@H](C(=O)OCc3ccccc3)C2)CC(c2cc(F)cc(F)c2)=NO1 (mixture of isomers)"
unitname = "%"
quantitativeresult = 100

[[record]]
molecule = "CCOC(=O)C1=C(NC(=O)C2(C)CC(c3cc(F)cc(F)c3)=NO2)COC1 (stereo not shown)"
unitname = "%"
quantitativeresult = 90

[[record]]
molecule = "C=C[C@]1(C(=O)N[C@H]2CO[C@@H](C(=O)OCC)C2)CC(c2cc(F)cc(F)c2)=NO1 (mixture of isomers)"
unitname = "%"
quantitativeresult = 100

